# tested-system: AgNobo (Anopheles gambiae, UniProt Q8WQJ5, D111A)
# Construct: full-length CDS, pCold-III, N-terminal MNHKV kept; E. coli BL21(DE3)
# protocol: fluorogenic GSH conjugation assay with […],4-DNADCF
readout-name: IC50

Request: Request the reported IC50 associated with C[C@]12CC[C@@H]3c4ccc(O)cc4CC[C@H]3[C@@H]1CC[C@@H]2O [17β-estradiol]
Response: > 25 µM

====

# tested-system: AgNobo (Anopheles gambiae, UniProt Q8WQJ5)
# Sequence (Q8WQJ5 1-217): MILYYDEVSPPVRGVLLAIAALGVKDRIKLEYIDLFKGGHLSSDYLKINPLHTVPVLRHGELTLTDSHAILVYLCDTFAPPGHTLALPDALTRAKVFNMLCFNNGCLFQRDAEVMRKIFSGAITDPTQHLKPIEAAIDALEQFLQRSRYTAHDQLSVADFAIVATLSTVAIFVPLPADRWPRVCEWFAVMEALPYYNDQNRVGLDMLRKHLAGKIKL
readout-name: IC50 (nM)
Numeric answer only, unit nM assumed.

Request: What IC50 appears in the records for this compound with AgNobo (Anopheles gambiae, UniProt Q8WQJ5)? C[C@]12CC[C@@H]3c4ccc(O)cc4CC[C@H]3[C@@H]1CC[C@@H]2O
Response: 2070
